target: Muscarinic acetylcholine receptor M4 (Homo sapiens); assay: M4 positive allosteric modulators, potency, SAR follow-up, CHO hM4/Gqi5 cells, calcium mobilization (AID 588743); details: PAM with EC20 ACh
Hi there, I'd appreciate the recorded pEC50 for every entry that follows.
Give bare numbers, as −log10 of the molar value.

Cc1cc(CNC(=O)c2sc3nc(C)c(Cl)c(C)c3c2N)ccn1
7.24

Give one value of pEC50 per listed compound.
1. Cc1nc2sc(C(=O)NC3CCOC3)c(N)c2c(C)c1Cl (centres undefined)
2. Cc1nc2sc(C(=O)NCc3ccc(C(F)(F)F)cc3)c(N)c2c(C)c1Cl
3. Cc1nc2sc(C(=O)NC(C)c3ccccn3)c(N)c2c(C)c1Cl (centres undefined)

7.54
5.94
5.85

* * *

biological target: Muscarinic acetylcholine receptor M4 (Homo sapiens) (UniProt P08173); test: M4 positive allosteric modulators, potency, SAR follow-up, CHO hM4/Gqi5 cells, calcium mobilization (AID 588743); conditions: PAM with EC20 ACh, at 30 µM (top of the series)
Sequence (P08173 whole entry, looked up): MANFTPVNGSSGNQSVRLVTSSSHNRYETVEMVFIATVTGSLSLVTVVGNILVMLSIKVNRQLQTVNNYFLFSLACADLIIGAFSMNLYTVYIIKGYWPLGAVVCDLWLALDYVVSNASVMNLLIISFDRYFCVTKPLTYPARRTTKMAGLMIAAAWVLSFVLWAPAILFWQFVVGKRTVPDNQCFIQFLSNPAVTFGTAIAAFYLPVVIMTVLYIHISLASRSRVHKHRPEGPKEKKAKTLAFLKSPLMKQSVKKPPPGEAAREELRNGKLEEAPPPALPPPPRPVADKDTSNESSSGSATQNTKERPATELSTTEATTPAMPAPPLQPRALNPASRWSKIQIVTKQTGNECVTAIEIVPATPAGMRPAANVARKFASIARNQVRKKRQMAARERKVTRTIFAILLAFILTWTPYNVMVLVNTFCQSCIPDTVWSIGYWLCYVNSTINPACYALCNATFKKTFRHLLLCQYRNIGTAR
Calls of active or inactive are those of the source.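 Rule for the calls: active = a dose-dependent boost of the low-dose acetylcholine calcium response, with potency and top response fitted; inactive = the rest.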
The categories you may choose from are active, inactive

CCOc1ccc(NC(=O)c2sc3nc(C)c(Cl)c(C)c3c2N)cc1
inactive
Cc1nc2sc(C(=O)NCCc3cccnc3)c(N)c2c(C)c1Cl
inactive
Cc1nc2sc(C(=O)Nc3ccccc3N(C)C)c(N)c2c(C)c1Cl
inactive

In this assay, the call recorded for COc1ccc(NC(=O)c2sc3nc(C)c(Cl)c(C)c3c2N)cc1 was what? active

* * *

target: Muscarinic acetylcholine receptor M4 (Homo sapiens) (UniProt P08173); assay: M4 positive allosteric modulators, potency, SAR follow-up, CHO hM4/Gqi5 cells, calcium mobilization (AID 588743); conditions: PAM with EC20 ACh
TEST READOUT: EC50

For each listed entry, give its EC50.
1. Cc1nc2sc(C(=O)NCCc3ccccn3)c(N)c2c(C)c1Cl
2. Cc1nc2sc(C(=O)NC(C)C)c(N)c2c(C)c1Cl
3. COc1ccc(CNC(=O)c2sc3nc(C)c(Cl)c(C)c3c2N)cc1
4. Cc1nc2sc(C(=O)NCCc3ccncc3)c(N)c2c(C)c1Cl

686 nM
183 nM
89.1 nM
211 nM

* * *

target: Muscarinic acetylcholine receptor M4 (Homo sapiens) (UniProt P08173); experiment: M4 positive allosteric modulators, potency, SAR follow-up, CHO hM4/Gqi5 cells, calcium mobilization (AID 588743); details: PAM with EC20 ACh
TEST READOUT: pEC50
Give bare numbers, as −log10 of the molar value.

Use the examples below as a reference point.
Cc1nc2sc(C(=O)NC(C)c3cccnc3)c(N)c2c(C)c1Cl (stereo unspecified)
6.22
Cc1nc2sc(C(=O)NC3COC3)c(N)c2c(C)c1Cl
6.04

// each listed compound needs a value for pEC50
1. Cc1nc2sc(C(=O)NCc3ccc4c(c3)OCO4)c(N)c2c(C)c1Cl
2. Cc1nc2sc(C(=O)NCC3CCCCC3)c(N)c2c(C)c1Cl
3. Cc1nc2sc(C(=O)NCc3cnccn3)c(N)c2c(C)c1Cl
4. Cc1nc2sc(C(=O)NC3CC3)c(N)c2c(C)c1Cl
5. Cc1nc2sc(C(=O)NCc3ccncn3)c(N)c2c(C)c1Cl

1: 6.77; 2: 5.96; 3: 6.60; 4: 7.68; 5: 6.76

* * *

biological target: UniProt:P08173; test: M4 positive allosteric modulators, potency, SAR follow-up, CHO hM4/Gqi5 cells, calcium mobilization (AID 588743); details: PAM with EC20 ACh
TEST READOUT: EC50

Cc1nc2sc(C(=O)NC(C)c3ccncc3)c(N)c2c(C)c1Cl (stereo not given)
0.6 µM
Cc1nc2sc(C(=O)NCc3cccc(F)c3F)c(N)c2c(C)c1Cl
0.12 µM
Cc1nc2sc(C(=O)NC3CCCCC3)c(N)c2c(C)c1Cl
0.188 µM
Cc1nc2sc(C(=O)NCc3ccccc3Cl)c(N)c2c(C)c1Cl
0.154 µM

Supply recorded EC50 for Cc1nc2sc(C(=O)NCc3ccccn3)c(N)c2c(C)c1Cl here. 0.293 µM

* * *

molecular target: Muscarinic acetylcholine receptor M4 (Homo sapiens); assay: M4 positive allosteric modulators, potency, SAR follow-up, CHO hM4/Gqi5 cells, calcium mobilization (AID 588743); details: PAM with EC20 ACh
TEST READOUT: EC50

Past entries and their recorded results:
Cc1nc2sc(C(=O)NCc3ccncc3)c(N)c2c(C)c1Cl
37.2 nM
Cc1nc2sc(C(=O)NCCC3CCCN3C)c(N)c2c(C)c1Cl (configuration not stated)
596 nM
COCCCNC(=O)c1sc2nc(C)c(Cl)c(C)c2c1N
425 nM
Cc1nc2sc(C(=O)NCc3ncccn3)c(N)c2c(C)c1Cl
1070 nM
Cc1nc2sc(C(=O)NC3CCOCC3)c(N)c2c(C)c1Cl
220 nM

Batch of 2 compounds: report EC50 for each.
1. Cc1nc2sc(C(=O)NCc3nccs3)c(N)c2c(C)c1Cl
2. Cc1nc2sc(C(=O)NCc3ccnnc3)c(N)c2c(C)c1Cl

174 nM
222 nM

* * *

target: UniProt P08173; assay: M4 positive allosteric modulators, potency, SAR follow-up, CHO hM4/Gqi5 cells, calcium mobilization (AID 588743); settings: PAM with EC20 ACh
Exercise: for every item that follows, state its recorded pEC50.
Give bare numbers, as −log10 of the molar value.

Some compounds with known pEC50 results, for comparison:
Cc1ccc(CNC(=O)c2sc3nc(C)c(Cl)c(C)c3c2N)cc1
6.88
Cc1nc2sc(C(=O)NCc3cccnc3)c(N)c2c(C)c1Cl
6.48
Cc1nc2sc(C(=O)NC(C)(C)C)c(N)c2c(C)c1Cl
6.43

Then this compound:
Tell me pEC50 of Cc1nc2sc(C(=O)NCc3ccccc3)c(N)c2c(C)c1Cl when tested on UniProt P08173. 6.88
